Tested on: Escherichia coli IAI1
TEST NAME: fold change of Cadaverine concentration vs plate DMSO controls (fold change (ratio)); higher = more amine produced, active = hit call of the paper (significant change in both replicates, either direction)
TEST CONDITIONS: incubation time: 27 h, anaerobic, 37 °C
Where a name gives a salt, the structure may show the parent alone.
PARAMETER MEASURED: fold change of Cadaverine concentration
Output: the number by itself.

The cases that follow already have their fold change of Cadaverine concentration on record.
• CC/C(=C(/CC)c1ccc(O)cc1)c1ccc(O)cc1 [Diethylstilbestrol] (20 µM) = 1.02
• COc1cc2/c(=N/c3ccc(Br)cc3F)nc[nH]c2cc1OCC1CCN(C)CC1 [Vandetanib] (20 µM) = 0.992
• OC(Cn1cncn1)(Cn1cncn1)c1ccc(F)cc1F [Fluconazole] (20 µM) = 1.01
• C[N+](C)(CCOc1ccccc1)Cc1ccccc1.O=C([O-])c1cc2ccccc2cc1O [Bephenium hydroxynaphthoate] (20 µM) = 1.51
• C#C[C@]1(O)CC[C@H]2[C@@H]3[C@H](C)CC4=C(CCC(=O)C4)[C@H]3CC[C@@]21C [Tibolone] (20 µM) = 0.994

Value of measured fold change of Cadaverine concentration for the entry CC(C)[C@H](N)C(=O)OCC(CO)OCn1cnc2c(=O)nc(N)[nH]c21 (stereo partly drawn) [Valganciclovir hydrochloride] (20 µM) : 1.01

Quick note, fold change of Cadaverine concentration for Cc1cccc(Nc2ccncc2S(=O)(=O)NC(=O)NC(C)C)c1 [Torsemide] (20 µM) landed at 0.976

For this molecule ( Nc1ccc(S(=O)(=O)Nc2ccnn2-c2ccccc2)cc1 [Sulfaphenazole] (20 µM) ), measured fold change of Cadaverine concentration is 1.04

----------
Tested on: Klebsiella aerogenes DSM 30053
TEST NAME: fold change of Putrescine concentration vs plate DMSO controls (fold change (ratio)); higher = more amine produced, active = hit call of the paper (significant change in both replicates, either direction)
TEST CONDITIONS: incubation time: 27 h, anaerobic, 37 °C
Structures can show the parent of a compound that is named as a salt.
Returns Criterion met if the recorded fold change of Putrescine concentration is greater than or equal to 1, and Criterion not met otherwise.

• Cc1c(NC(C)C)c(=O)n(-c2ccccc2)n1C [Isopyrin hydrochloride] (20 µM) = Criterion not met

**Query** Given the entry N[C@@H]1CCCCN(c2c(F)cc3c(=O)c(C(=O)O)cn(C4CC4)c3c2Cl)C1 [Besifloxacin hydrochloride] (20 µM) , answer whether its fold change of Putrescine concentration meets or surpasses 1.
**Result** Criterion met

----------
Known growth of a selection of compounds
Test system: Klebsiella aerogenes DSM 30053
TEST NAME: growth (OD595) fold change vs plate DMSO controls (fold change (ratio)); higher = more growth
TEST CONDITIONS: incubation time: 27 h, anaerobic, 37 °C
Where a name gives a salt, the structure may show the parent alone.
Lab note: record just the number, no unit beside it.

Per the record, CC(C)(Oc1ccc(Cl)cc1)C(=O)O [Clofibric acid] (20 µM) has growth of 1.02

Entry under test: Nc1ccc(S(=O)(=O)Nc2nccs2)cc1 [Sulfathiazole] (20 µM) . Its growth was 1.03

// recorded growth for CC[C@H](C)[C@H](NC(=O)[C@H](Cc1ccc(O)cc1)NC(=O)[C@@H](NC(=O)[C@H](CCCN=C(N)N)NC(=O)[C@@H](N)CC(=O)O)C(C)C)C(=O)N[C@@H](Cc1cnc[nH]1)C(=O)N1CCC[C@H]1C(=O)N[C@@H](Cc1ccccc1)C(=O)O [Angiotensin II (Human) Trifluoroacetic acid salt] (20 µM) : 0.987

Please fill in: growth reported for C[C@]12CC[C@@H]3c4ccc(O)cc4CC[C@H]3[C@@H]1CCC2=O [Estrone] (20 µM) = 1.03

Recorded growth (compound CCCNC(C)C(=O)Nc1c(C)csc1C(=O)OC (stereo unspecified) [Articaine hydrochloride] (20 µM) ): 1.03

get_value(item= CC[C@@H]1C(=O)OC[C@@H]1Cc1cncn1C [Pilocarpine nitrate] (20 µM) , readout=growth) returns 0.987

----------
System: Clostridium sporogenes DSM 1664
TEST NAME: growth (OD595) fold change vs plate DMSO controls (fold change (ratio)); higher = more growth
TEST CONDITIONS: incubation time: 27 h, anaerobic, 37 °C
Counter-ions that a name gives are not always drawn.
Decision: growth compared against 1; not below it gives Satisfied, below it gives Not satisfied.

Worked cases, answers included:
* CN[C@@H]1CCc2[nH]c3ccc(C(N)=O)cc3c2C1 [Frovatriptan succinate] (20 µM) | Satisfied
* OCCN1CCN(CC/C=C2/c3ccccc3Sc3ccc(Cl)cc32)CC1 [Zuclopenthixol dihydrochloride] (20 µM) | Not satisfied
* COC(=O)[C@H]1[C@H]2C[C@@H]3c4[nH]c5cc(OC)ccc5c4CCN3C[C@H]2C[C@@H](OC(=O)c2cc(OC)c(OC)c(OC)c2)[C@@H]1OC [Reserpine] (20 µM) | Satisfied
* O=C1OC(CN2CCOCC2)CN1/N=C/c1ccc([N+](=O)[O-])o1 (centres undefined) [Furaltadone hydrochloride] (20 µM) | Not satisfied
* CC1=Nc2ccc(Cl)cc2S(=O)(=O)N1 [Diazoxide] (20 µM) | Satisfied

Pending compound:
**Query** # check: growth of CCS(=O)(=O)CCn1c([N+](=O)[O-])cnc1C [Tinidazole] (20 µM) is greater than or equal to 1
**Result** Not satisfied

----------
Tested on: Ruminococcus gnavus DSM 108212
TEST NAME: fold change of 2-Phenylethylamine concentration vs plate DMSO controls (fold change (ratio)); higher = more amine produced, active = hit call of the paper (significant change in both replicates, either direction);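 for the amine columns active = adjusted P below 0.05 in both replicates with a change the same way and a mean fold change under 0.8 or over 1.25; inactive = the rest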
TEST CONDITIONS: incubation time: 27 h, anaerobic, 37 °C
Structures can show the parent of a compound that is named as a salt.
Would you mind answering with one of these outcomes? active, inactive

• COc1cccc(CCc2ccccc2OCC(CN(C)C)OC(=O)CCC(=O)O)c1 (configuration not stated) [Sarpogrelate hydrochloride] (20 µM) = inactive
• O=C1OC(CN2CCOCC2)CN1/N=C/c1ccc([N+](=O)[O-])o1 (configuration not stated) [Furaltadone hydrochloride] (20 µM) = inactive
• COc1cccc2c1C(=O)c1c(O)c3c(c(O)c1C2=O)C[C@@](O)(C(=O)CO)C[C@@H]3O[C@H]1C[C@H](N)[C@H](O)[C@H](C)O1 [Doxorubicin hydrochloride] (20 µM) = inactive
• C[N+]1(C)CCC(OC(=O)C(O)(c2ccccc2)C2CCCC2)C1 (configuration not stated) [Glycopyrrolate bromide] (20 µM) = inactive
• CC(=O)NC[C@H]1CN(c2ccc(N3CCOCC3)c(F)c2)C(=O)O1 [Linezolid] (20 µM) = active

**Query** Field: outcome | Entry: CCOC(=O)[C@H](CCc1ccccc1)N[C@H]1CCc2ccccc2N(CC(=O)O)C1=O [Benazepril hydrochloride] (20 µM)
**Result** inactive

**Query** State the result this test recorded for NNCCc1ccccc1 [Phenelzine sulfate] (20 µM) .
**Result** inactive

----------
Catalogue of fold change of Histamine concentration readings, one per entry.
System: Klebsiella aerogenes DSM 30053
TEST NAME: fold change of Histamine concentration vs plate DMSO controls (fold change (ratio)); higher = more amine produced, active = hit call of the paper (significant change in both replicates, either direction)
TEST CONDITIONS: incubation time: 27 h, anaerobic, 37 °C
Structures can show the parent of a compound that is named as a salt.
Please state the value as a number alone, without comment.

Reported fold change of Histamine concentration ( CC(=O)OCC(=O)[C@@]12OC3(CCCC3)O[C@@H]1C[C@H]1[C@@H]3CCC4=CC(=O)C=C[C@]4(C)[C@@]3(F)[C@@H](O)C[C@@]12C [Amcinonide] (20 µM) ) = 1.04

Given item C[N+]1(CCCCC[N+]2(C)CCCC2)CCCC1 [Pentolinium bitartrate] (20 µM) , the value recorded as its fold change of Histamine concentration is 1.06

Noted for OC[C@@H](O)[C@@H](O)CO [Erythritol] (50 µM) : its fold change of Histamine concentration reads 1.05

fold change of Histamine concentration in this record for c1ccc2c(CC3=NCCN3)cccc2c1 [Naphazoline hydrochloride] (20 µM) : 1.01

fold change of Histamine concentration in this record for CC(C)NCC(O)COc1cccc2[nH]c3ccccc3c12 (stereo unspecified) [Carazolol] (20 µM) : 1.06

----------
Quick reference: growth of the listed items.
Tested on: Klebsiella aerogenes DSM 30053
TEST NAME: growth (OD595) fold change vs plate DMSO controls (fold change (ratio)); higher = more growth
TEST CONDITIONS: incubation time: 27 h, anaerobic, 37 °C
Structures can show the parent of a compound that is named as a salt.
Output spec: single numeric token, no unit.

Solved entries:
* Nc1nnc(-c2cccc(Cl)c2Cl)c(N)n1 [Lamotrigine] (20 µM) | 0.986
* CC(Cc1cccc(C(F)(F)F)c1)NCCOC(=O)c1ccccc1 (stereo not drawn) [Benfluorex] (20 µM) | 0.966
* COc1cc(C(=O)OCCCN2CCCN(CCCOC(=O)c3cc(OC)c(OC)c(OC)c3)CC2)cc(OC)c1OC [Dilazep dihydrochloride] (20 µM) | 0.99

O=c1n(CCCN2CCN(c3cccc(Cl)c3)CC2)nc2ccccn12 [Trazodone hydrochloride] (20 µM) has a reported growth of 0.987
